- Tested on: Mus musculus
- Experiment summary: Toxicity in mouse assessed as weight loss at 200 mg/kg, po qd for 3 days
- Type: organism-based
- Experimental setup: in vivo, 72 h
Readout kind: Activity

Fill in the blank: the reported Activity of "CCCCN1CCC(N(Cc2ccccc2)C(=O)Nc2ccc(Cl)c(Cl)c2)CC1" is ____. 3 to 5%

====

For reference, pIC50 measured on DCN1-like protein 1 (Homo sapiens):
Lab note: report pIC50 as minus log10 of the concentration in molar units, number only.

>>> readout_number("CCCCN1CCC(N(Cc2ccccc2)C(=O)Nc2cccc(C#N)c2)CC1")
5.37
>>> readout_number("CCCCN1CCC(N(Cc2ccccc2)C(=O)Nc2ccc(C)c(Cl)c2)CC1")
6.49
>>> readout_number("CCCC(C)N1CCC(N(Cc2ccccc2)C(=O)Nc2cc(C(F)(F)F)ccc2F)CC1 (stereo not given)")
5.13

Consider the compound shown here: CCCC(C)N1CCC(N(Cc2ccccc2)C(=O)Nc2ccc3ccccc3c2)CC1 (stereo not given) What is its recorded pIC50? 7.74

One more compound: CCCC(C)N1CCC(N(Cc2ccccc2)C(=O)Nc2ccc(I)cc2)CC1 (stereo not given) 7.27

Repeat with CCCC(C)N1CCC(N(Cc2ccccc2)C(=O)Nc2cccc(F)c2)CC1 (stereo not given) 5.77

Then CCCC(C)N1CCC(N(Cc2ccccc2)C(=O)Nc2ccc(C(F)(F)F)nc2C)CC1 (stereo not given) ? 4.88

Do the same for CCCC(C)N1CCC(N(Cc2ccccc2)C(=O)Nc2ccc(C(C)(C)C)cc2)CC1 (stereo not given) please 5.76

Quick one: "CCCCN1CCC(N(Cc2ccccc2)C(=O)Nc2cccc(C)c2)CC1" 5.89

Thanks! And CCCC(C)N1CCC(N(Cc2ccccc2)C(=O)Nc2ccc(C)cc2)CC1 (stereo not given) ? 6.45

Param item: "CCCCN1CCC(N(Cc2ccccc2)C(=O)Nc2ccc(F)c(C(F)(F)F)c2)CC1" 6.21

Similarly, CCCC(C)N1CCC(N(Cc2ccccc2)C(=O)Nc2ccc(Br)cc2)CC1 (stereo not given) ? 7.17

Another compound to look at: CCCC(C)N1CCC(N(Cc2ccccc2)C(=O)Nc2ccc(Cl)cc2)CC1 (stereo not given) 6.95

CCCC(C)N1CCC(N(Cc2ccccc2)C(=O)Nc2ccc(C(F)(F)F)cc2)CC1 (stereo not given) , same question. 6.50

Note, next up: CCCC(C)N1CCC(N(Cc2ccccc2)C(=O)Nc2cccc(Cl)c2)CC1 (stereo not given) 6.52

Every entry's value here was drawn from ChEMBL document CHEMBL4020847.
